System: LOX IMVI melanoma
Method Description: NCI-60 one-dose screen, 48 h
Condition Details: 10 µM unless noted
About 83,000 compounds went through this panel and 20% of them were active in at least one assay; those are over-represented in the sample as a whole. Calls of active or inactive are those of the source. The calls were made as follows: active = growth percent below 10; inactive = the rest.
Your response should consist of one outcome taken from true for active, false for inactive

Illustrative cases are given below, each with its answer.
1. NC(=O)N/N=C\c1ccc([N+](=O)[O-])o1 :: false
2. Cc1ccccc1C1CC(=O)c2ccccc2C1C (configuration not stated) :: false
3. CCCCCCCCN=C(NCCCCCCCC)SCc1cccc2ccccc12 :: true
4. CCN(CC)c1cc(C)c(Cc2c(OC)ccc3ccccc23)cc1C :: false
5. CCOC(OCC)c1cnc2nc(NC(C)=O)[nH]c(=O)c2n1 :: false
6. Clc1ccc(-c2cnc3nonc3n2)s1 :: false

Field: next compound
Ask: Outcome logged for COc1ccc(/C=N/NC(N)=S)c(OC)n1 in this assay:
Reply: false

Values were extracted from PubChem BioAssay (NCI).
